These entries and their values trace back to ChEMBL document CHEMBL1158909.

test system: Staphylococcus aureus; assay: Antimicrobial activity against Staphylococcus aureus; format: functional, organism-based
Activity calls are given as the source filed them. The rule behind the calls is not given here.
Outcome codes: active, inactive

{"INPUT_SMILES": "Oc1c(Br)c(Br)c(Br)c(Br)c1Oc1ccc(Br)cc1Br", "EXPERIMENTAL_TARGET": "Staphylococcus aureus", "CLASS_ASSIGNMENT": "active"}
{"INPUT_SMILES": "COc1c(Br)c(Br)c(Br)c(Br)c1Oc1ccccc1Br", "EXPERIMENTAL_TARGET": "Staphylococcus aureus", "CLASS_ASSIGNMENT": "inactive"}
{"INPUT_SMILES": "COc1c(Br)c(Br)c(Br)c(Br)c1Oc1ccc(Br)cc1Br", "EXPERIMENTAL_TARGET": "Staphylococcus aureus", "CLASS_ASSIGNMENT": "inactive"}
{"INPUT_SMILES": "Oc1c(Br)c(Br)c(Br)c(Br)c1Oc1ccccc1Br", "EXPERIMENTAL_TARGET": "Staphylococcus aureus", "CLASS_ASSIGNMENT": "active"}
